- ASSAYED_SYSTEM: UniProt:P00533
- Sequence (P00533 25-1210): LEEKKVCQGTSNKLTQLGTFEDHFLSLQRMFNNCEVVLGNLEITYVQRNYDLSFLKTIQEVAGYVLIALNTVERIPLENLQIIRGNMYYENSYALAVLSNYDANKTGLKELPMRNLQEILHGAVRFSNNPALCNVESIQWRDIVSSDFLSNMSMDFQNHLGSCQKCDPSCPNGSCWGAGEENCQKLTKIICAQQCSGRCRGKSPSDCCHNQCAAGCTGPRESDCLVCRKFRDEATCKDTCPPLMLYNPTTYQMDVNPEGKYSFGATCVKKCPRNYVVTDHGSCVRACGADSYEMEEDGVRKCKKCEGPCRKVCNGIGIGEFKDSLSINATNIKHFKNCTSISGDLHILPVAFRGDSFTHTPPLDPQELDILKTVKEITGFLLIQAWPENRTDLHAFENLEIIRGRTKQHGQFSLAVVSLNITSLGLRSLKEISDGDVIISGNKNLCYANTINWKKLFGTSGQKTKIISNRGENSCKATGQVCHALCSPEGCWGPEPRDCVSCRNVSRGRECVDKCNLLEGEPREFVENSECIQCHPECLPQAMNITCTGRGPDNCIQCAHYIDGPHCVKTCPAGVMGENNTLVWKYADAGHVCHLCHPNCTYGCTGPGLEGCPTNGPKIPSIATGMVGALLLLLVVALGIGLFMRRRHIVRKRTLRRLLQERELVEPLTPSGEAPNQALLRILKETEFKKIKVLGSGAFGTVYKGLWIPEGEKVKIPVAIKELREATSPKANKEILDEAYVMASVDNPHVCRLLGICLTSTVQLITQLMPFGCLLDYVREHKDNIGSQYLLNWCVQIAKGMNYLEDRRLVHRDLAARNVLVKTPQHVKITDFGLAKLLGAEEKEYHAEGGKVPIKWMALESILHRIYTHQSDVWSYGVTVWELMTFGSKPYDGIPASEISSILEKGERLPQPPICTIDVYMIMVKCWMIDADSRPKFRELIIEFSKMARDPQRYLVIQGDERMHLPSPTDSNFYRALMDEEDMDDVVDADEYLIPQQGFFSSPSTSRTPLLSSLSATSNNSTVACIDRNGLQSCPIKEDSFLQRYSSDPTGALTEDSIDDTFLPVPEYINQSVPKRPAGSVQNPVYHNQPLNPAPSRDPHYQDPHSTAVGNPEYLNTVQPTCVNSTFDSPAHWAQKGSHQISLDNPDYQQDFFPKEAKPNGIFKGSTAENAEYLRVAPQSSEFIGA
- ASSAY_REMARKS: Cellular Phosphorylation Assay, Assay 5 (EGF-stimulated EGFR phosphorylation, NIH 3T3 cells)
- Format: cell-based
- RECORDED_CONDITIONS: EGF-stimulated EGFR WT phosphorylation
So basically: is IC50 under 1000 nM? Then rule met. Not under? Then rule not met.

- C=CC(=O)N1CCN(c2ccc3ncnc(Nc4ccc(Oc5ccn6ncnc6c5)c(C(F)(F)F)c4)c3n2)CC1(C)C [Example 242]: rule not met
- C=CC(=O)N1CCCC[C@@H](c2ccc3ncnc(Nc4ccc(Oc5ccc6c(c5)ncn6C)c(C)c4F)c3n2)C1 (racemic) [Example 145]: rule met
- CC#CC(=O)N1CCN(c2ccc3ncnc(Nc4ccc(Oc5ccn6ncnc6c5)c(Cl)c4F)c3n2)CC12CC2 [Example 181]: rule met
- C=CC(=O)N1CC[C@H](c2ccc3ncnc(Nc4cc(C)c(Oc5ccc6c(c5)ncn6C)cc4F)c3n2)CC(C)(C)C1 (racemic) [Example 139]: rule not met
- C=CC(=O)N1CCC(Oc2ccc3ncnc(Nc4ccc(Oc5ccn6ncnc6c5)c(C)c4F)c3n2)CC1 [Example 17]: rule not met
- C=CC(=O)N1CCC(Oc2nc3c(Nc4ccc(Oc5ccc6cn(C)nc6c5)c(C)c4F)ncnc3cc2OC)CC1 [Example 151]: rule met
- C=CC(=O)N1C[C@H](c2ccc3ncnc(Nc4cc(C)c(Oc5ccc6c(c5)ncn6C)cc4F)c3n2)CCC1(C)C (racemic) [Example 141]: rule not met
